Tested on: NF54^WT parasites
TEST PROTOCOL: microbe, parasite or virus in culture
Type: cell-based, Plasmodium falciparum
EXPERIMENTAL CONDITIONS: Plasmodium falciparum, NF54, NF54WT parasites; mean of the experiments; read-out: IC50 values, MEAN
PROPERTY MEASURED: pIC50
pIC50 here is simply -log10 of the concentration when that concentration is written in mol/L.

Query string: # lookup: pIC50 of COc1ccc2nc3cc(Cl)ccc3c(Nc3cc(CN4CCCC4)c(O)c(CN4CCCC4)c3)c2n1
Result string: 8.85

Query string: Okay, and COc1nc(C(C)C)ccc1-c1cnc2sc(N3CCC(O)(CN)CC3)nn12 ?
Result string: 9.09

Query string: Okay, and CC1(C)c2nc(-c3ccc(F)cc3)c(Nc3ccc(F)cc3)n2CCN1C(=O)CN ?
Result string: 8.17

Query string: Okay, and CCCCN(CCCC)CC(O)c1cc(Cl)cc2c1-c1ccc(Cl)cc1/C2=C/c1ccc(Cl)cc1 (centres unmarked) ?
Result string: 7.24

Query string: Okay, and Clc1ccc2c(N3CCN(CCCN4CCN(c5ccnc6cc(Cl)ccc56)CC4)CC3)ccnc2c1 ?
Result string: 7.71

----------
Test system: NF54^CTL parasites
TEST PROTOCOL: P. falciparum proliferation assay (72 h, flow cytometry, SYBR Green I/MitoTracker)
Assay type: cell-based, Plasmodium falciparum
EXPERIMENTAL CONDITIONS: Plasmodium falciparum, NF54, NF54CTL parasites; mean of the experiments; read-out: IC90 values, MEAN
Experimental: For the NF54-based lines and Dd2-B2-PfATP4^G358S and its parent, assays were initiated with cultures containing predominantly ring-stage parasites with a parasitaemia of 0.3% and a haematocrit of 1%. […] Parasite survival was assessed by flow cytometry on an Intellicyt iQue3 (Essen Bioscience), with 1× SYBR Green I (Invitrogen) and 200 nM MitoTracker Deep Red FM (Invitrogen) used to stain the nucleus and the mitochondria in live parasites, respectively. […]
Binarize IC90 at 30 nM; below is 1 (yes), at or above is 0 (no).

Query string: # strict comparison: is reported IC90 < 30 nM? input = COc1ccc2nc3cc(Cl)ccc3c(Nc3cc(CN4CCCC4)c(O)c(CN4CCCC4)c3)c2n1
Result string: 1 (yes)

Query string: Okay, and C[C@H]1Cc2c([nH]c3cc(Cl)c(F)cc23)[C@@]2(N1)C(=O)Nc1ccc(Cl)cc12 ?
Result string: 1 (yes)

Query string: Okay, and CCCCN(CCCC)CC(O)c1cc(Cl)cc2c1-c1ccc(Cl)cc1/C2=C/c1ccc(Cl)cc1 (centres unmarked) ?
Result string: 0 (no)

Query string: Okay, and N#Cc1cc(NC(=O)[C@H]2c3ccccc3C(=O)N(CC(F)(F)F)[C@@H]2c2cccnc2)ccc1F [(+)-SJ733] ?
Result string: 0 (no)

Query string: Okay, and COc1nc(C(C)C)ccc1-c1cnc2sc(N3CCC(O)(CN)CC3)nn12 ?
Result string: 1 (yes)

Query string: Okay, and C[C@H]1[C@@H](O)O[C@@H]2O[C@@]3(C)CC[C@H]4[C@H](C)CC[C@@H]1[C@@]24OO3 [Dihydroartemisinin] ?
Result string: 1 (yes)

Query string: Okay, and CC1(C)c2nc(-c3ccc(F)cc3)c(Nc3ccc(F)cc3)n2CCN1C(=O)CN ?
Result string: 1 (yes)

Query string: Okay, and Clc1ccc2c(N3CCN(CCCN4CCN(c5ccnc6cc(Cl)ccc56)CC4)CC3)ccnc2c1 ?
Result string: 0 (no)

Cited source for all entries: paper PMC9525273
